Target: UniProt:P41143
Sequence (P41143 whole entry): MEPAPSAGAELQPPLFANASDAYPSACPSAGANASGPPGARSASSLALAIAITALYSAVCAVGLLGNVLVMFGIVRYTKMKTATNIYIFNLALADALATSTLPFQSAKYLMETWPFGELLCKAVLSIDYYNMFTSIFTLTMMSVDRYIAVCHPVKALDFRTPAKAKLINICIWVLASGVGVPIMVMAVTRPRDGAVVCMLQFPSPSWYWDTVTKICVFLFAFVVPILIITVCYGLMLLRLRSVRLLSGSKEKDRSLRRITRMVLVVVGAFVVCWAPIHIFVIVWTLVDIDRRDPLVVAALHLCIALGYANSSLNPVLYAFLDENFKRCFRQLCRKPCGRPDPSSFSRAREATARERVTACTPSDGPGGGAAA
Assay: PDSP off-target binding, DOR
pKi: −log10 of the molar value.

{"columns": ["Structure", "pKi"],
 "data": [
  ["NCCCNC(=O)c1ccc(-c2cc(C(=O)O)cc(-c3cn(-c4ccc(C(F)(F)F)cc4)nn3)c2)s1", 5.53]
]}

====

Catalogue of compounds with associated pIC50
Biological target: UniProt P34972
Sequence (P34972 whole entry): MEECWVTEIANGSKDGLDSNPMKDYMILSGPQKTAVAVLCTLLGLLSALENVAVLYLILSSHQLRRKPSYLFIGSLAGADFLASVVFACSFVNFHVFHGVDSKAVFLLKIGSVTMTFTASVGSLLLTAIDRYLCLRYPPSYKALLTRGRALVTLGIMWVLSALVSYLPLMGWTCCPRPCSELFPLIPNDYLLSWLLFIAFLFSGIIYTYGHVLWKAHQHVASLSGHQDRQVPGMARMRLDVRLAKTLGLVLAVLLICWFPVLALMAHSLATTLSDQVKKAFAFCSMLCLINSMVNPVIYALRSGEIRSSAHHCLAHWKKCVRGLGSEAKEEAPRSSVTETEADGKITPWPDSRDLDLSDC
Experiment: PDSP functional agonist/antagonist assay, CB2
pIC50: −log10 of the molar value.

{"columns": ["Compound", "pIC50"],
 "data": [
  ["O=C(O)c1cc(-c2ccc(C3CCNCC3)cc2)c2ccc(-c3ccc(C(F)(F)F)cc3)cc2c1 [Compound 1, reference compound]", "< 5.00"],
  ["O=C(O)c1cc(-c2ccc(C3CCNCC3)cc2)cc(-c2cn(-c3ccc(C(F)(F)F)cc3)nn2)c1 [Compound 25]", "< 5.00"]
]}
